Measured values drawn from PubChem BioAssay AID1963826 for this set.

Tested on: 926638-142-R-J1-PDC complex spheroid viability;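 also: spheroids exposed to drugs for one week before readout; percent viability relative to DMSO vehicle control wells set as 100%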
TEST DESCRIPTION: Anticancer human tumor 926638-142-R-J1-PDC patient-derived endometrial carcinoma cell line growth inhibition [POLQ]
TEST CONTEXT: second compound 1 µM; first compound 3.16 µM; hits give low values
METRIC NAME: viability, T/C

1) CCCS(=O)(=O)Nc1ccc(F)c(C(=O)c2c[nH]c3ncc(-c4ccc(Cl)cc4)cc23)c1F + Nc1ccc(C#CCN(C(=O)Cc2ncc(C(F)(F)F)cc2C(F)(F)F)c2ccc(F)cc2)nn1 : 80.4%
2) O=C(c1cc(Cc2n[nH]c(=O)c3ccccc23)ccc1F)N1CCN(C(=O)C2CC2)CC1 + Nc1ccc(C#CCN(C(=O)Cc2ncc(C(F)(F)F)cc2C(F)(F)F)c2ccc(F)cc2)nn1 : 82%
3) COc1cc(C2c3cc4c(cc3C(OC3OC5COC(C)OC5C(O)C3O)C3COC(=O)C23)OCO4)cc(OC)c1O (configuration not stated) + Nc1ccc(C#CCN(C(=O)Cc2ncc(C(F)(F)F)cc2C(F)(F)F)c2ccc(F)cc2)nn1 : 69.3%
4) COc1cc(C2c3cc4c(cc3C(OC3OC5COC(C)OC5C(O)C3O)C3COC(=O)C23)OCO4)cc(OC)c1O (configuration not stated) + COC1C(OC(N)=O)C(O)C(Oc2ccc3c(O)c(NC(=O)c4ccc(O)c(CC=C(C)C)c4)c(=O)oc3c2C)OC1(C)C : 70.9%
5) CCc1cc2c(N3CCc4c(cc(Cn5ccnc5)cc4-c4cn(C)nc4C(F)(F)F)C3=O)cc(C)nc2c(OC)n1 + Cc1cccc(N(C)C(=O)C2C(O)CCN2c2nc(C)cc(C(F)(F)F)c2C#N)c1 : 34.2%
6) C=CC(=O)N1CCN(c2nc(=O)n(-c3c(C)ccnc3C(C)C)c3nc(-c4c(O)cccc4F)c(F)cc23)C(C)C1 (configuration not stated) + Nc1ccc(C#CCN(C(=O)Cc2ncc(C(F)(F)F)cc2C(F)(F)F)c2ccc(F)cc2)nn1 : 85.1%
7) C=CC(=O)N1CCN(c2nc(=O)n(-c3c(C)ccnc3C(C)C)c3nc(-c4c(O)cccc4F)c(F)cc23)C(C)C1 (configuration not stated) + COC1C(OC(N)=O)C(O)C(Oc2ccc3c(O)c(NC(=O)c4ccc(O)c(CC=C(C)C)c4)c(=O)oc3c2C)OC1(C)C : 77.2%
